These entries and their values trace back to PubChem BioAssay AID1963869.

- Tested on: KRAS patient-derived spheroids with HUVEC/MSC, viability
- Method Notes: Anticancer human tumor 323965-272-R-J2-PDC patient-derived pancreatic carcinoma cell line growth inhibition [KRAS2]
- Conditions: second compound 1 µM; first compound 0.1 µM; active compounds read low
- Description: Multicellular complex tumor spheroid response to RAS pathway inhibitors in combination with a targeted agents in patient-derived cell lines with oncogenic KRAS variants from multiple cancer types A high-throughput screen of multi-cell type tumor spheroids was designed to identify active combinations of targeted small molecules and KRAS pathway inhibitors. […] Compounds. […] If the clinical Cmax for an agent had not been determined, the highest concentration tested was 10 microM. […]
The following compounds are listed with their measured viability, T/C values.

Some entries whose results are on file:
COc1cc2nccc(Oc3ccc(NC(=O)C4(C(=O)Nc5ccc(F)cc5)CC4)cc3)c2cc1OC + C=CC(=O)N1CCN(c2nc(OCC3CCCN3C)nc3c2CCN(c2cccc4cccc(C)c24)C3)CC1CC#N | 63.5%
O=C(c1cc(Cc2n[nH]c(=O)c3ccccc23)ccc1F)N1CCN(C(=O)C2CC2)CC1 + COc1cc2nc(C)nc(NC(C)c3cc(N)cc(C(F)(F)F)c3)c2cc1OC1CCOC1 | 103%

Consider the additional compound presented here.
Field request: viability, T/C | item: COc1cc2nccc(Oc3ccc(NC(=O)C4(C(=O)Nc5ccc(F)cc5)CC4)cc3)c2cc1OC + CC1OCC2(CCN(c3cnc(Sc4ccnc(N)c4Cl)c(N)n3)CC2)C1N
42.4%

----------
- System: KRAS patient-derived spheroids with HUVEC/MSC, viability
- Method Notes: Anticancer human tumor 323965-272-R-J2-PDC cell line growth inhibition [KRAS2];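 note: spheroids exposed to agents for 7 days; 100% = DMSO vehicle control viability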
- Conditions: second compound 1 µM; first compound 0.0316 µM; active compounds read low
Rule: measured viability, T/C below 60% gets criterion met; anything equal to or greater than 60% gets criterion not met.

Lab note: viability, T/C threshold 60%. Does this molecule come in strictly under it? CCN1CCN(Cc2ccc(Nc3ncc(F)c(-c4cc(F)c5nc(C)n(C(C)C)c5c4)n3)nc2)CC1 + CC1OCC2(CCN(c3cnc(Sc4ccnc(N)c4Cl)c(N)n3)CC2)C1N
criterion met

Lab note: viability, T/C threshold 60%. Does this molecule come in strictly under it? CC1COCCN1c1cc(-c2ccnn2C)c2ccnc(-c3ccn[nH]3)c2n1 (stereo unspecified) + CC1OCC2(CCN(c3cnc(Sc4ccnc(N)c4Cl)c(N)n3)CC2)C1N
criterion met

Lab note: viability, T/C threshold 60%. Does this molecule come in strictly under it? CC1OCC2(CCN(c3cnc(Sc4ccnc(N)c4Cl)c(N)n3)CC2)C1N (stereo unspecified) + CNCc1ccccc1-c1csc(C(C)Nc2nc(C)nc3cc(OC)c(OC)cc23)c1
criterion not met

Lab note: viability, T/C threshold 60%. Does this molecule come in strictly under it? COc1cc(Nc2ncc3c(n2)-c2ccc(Cl)cc2C(c2c(F)cccc2OC)=NC3)ccc1C(=O)O + CC1OCC2(CCN(c3cnc(Sc4ccnc(N)c4Cl)c(N)n3)CC2)C1N
criterion met

Lab note: viability, T/C threshold 60%. Does this molecule come in strictly under it? CC1OCC2(CCN(c3cnc(Sc4ccnc(N)c4Cl)c(N)n3)CC2)C1N (stereo unspecified) + C=CC(=O)N1CCN(c2nc(=O)n(-c3c(C)ccnc3C(C)C)c3nc(-c4c(O)cccc4F)c(F)cc23)C(C)C1
criterion met

----------
- System: KRAS patient-derived spheroids with HUVEC/MSC, viability
- Method Notes: Anticancer human tumor 323965-272-R-J2-PDC cell line growth inhibition [KRAS2];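 note: spheroids exposed to agents for 7 days; 100% = DMSO vehicle control viability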
- Conditions: second compound 3.16 µM; first compound 3.16 µM; active compounds read low
Rule: measured viability, T/C below 30% gets Criterion met; anything equal to or greater than 30% gets Criterion not met.

CCNC(=O)CC1N=C(c2ccc(Cl)cc2)c2cc(OC)ccc2-n2c(C)nnc21 (stereo not given) + CNCc1ccccc1-c1csc(C(C)Nc2nc(C)nc3cc(OC)c(OC)cc23)c1 | Criterion met
CC1(C)CCC(CN2CCN(c3ccc(C(=O)NS(=O)(=O)c4ccc(NCC5CCOCC5)c([N+](=O)[O-])c4)c(Oc4cnc5[nH]ccc5c4)c3)CC2)=C(c2ccc(Cl)cc2)C1 + CC1OCC2(CCN(c3cnc(Sc4ccnc(N)c4Cl)c(N)n3)CC2)C1N | Criterion met
Cn1nccc1Nc1nccc(-c2cc3c(s2)C(C)(C)N(CCN2CCOCC2)C3=O)n1 + C=CC(=O)N1CCN(c2nc(=O)n(-c3c(C)ccnc3C(C)C)c3nc(-c4c(O)cccc4F)c(F)cc23)C(C)C1 | Criterion not met
Cn1nccc1Nc1nccc(-c2cc3c(s2)C(C)(C)N(CCN2CCOCC2)C3=O)n1 + C=CC(=O)N1CCN(c2nc(OCC3CCCN3C)nc3c2CCN(c2cccc4cccc(C)c24)C3)CC1CC#N | Criterion met

Let us examine a further case.
Lab note: viability, T/C threshold 30%. Does this molecule come in strictly under it? CCNC(=O)CC1N=C(c2ccc(Cl)cc2)c2cc(OC)ccc2-n2c(C)nnc21 (stereo not given) + C=CC(=O)N1CCN(c2nc(OCC3CCCN3C)nc3c2CCN(c2cccc4cccc(C)c24)C3)CC1CC#N
Criterion met

----------
- Test system: KRAS patient-derived spheroids with HUVEC/MSC, viability
- Method Notes: Anticancer human tumor 323965-272-R-J2-PDC cell line growth inhibition [KRAS2];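 note: spheroids exposed to agents for 7 days; 100% = DMSO vehicle control viability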
- Conditions: second compound 1 µM; first compound 3.16 µM; active compounds read low
Metric: viability, T/C (%)
// note: answer is a bare numeric in %

Some entries whose results are on file:
COc1cc2nccc(Oc3ccc(NC(=O)C4(C(=O)Nc5ccc(F)cc5)CC4)cc3)c2cc1OC + COc1cc2nc(C)nc(NC(C)c3cc(N)cc(C(F)(F)F)c3)c2cc1OC1CCOC1 | 74.1
CC1OCC2(CCN(c3cnc(Sc4ccnc(N)c4Cl)c(N)n3)CC2)C1N (stereo not given) + C=CC(=O)N1CCN(c2nc(=O)n(-c3c(C)ccnc3C(C)C)c3nc(-c4c(O)cccc4F)c(F)cc23)C(C)C1 | 15
CC(=O)OC12COC1CC(O)C1(C)C(=O)C(O)C3=C(C)C(OC(=O)C(O)C(NC(=O)OC(C)(C)C)c4ccccc4)CC(O)(C(OC(=O)c4ccccc4)C21)C3(C)C (stereo not given) + CNCc1ccccc1-c1csc(C(C)Nc2nc(C)nc3cc(OC)c(OC)cc23)c1 | 35.3
O=C(c1cc(Cc2n[nH]c(=O)c3ccccc23)ccc1F)N1CCN(C(=O)C2CC2)CC1 + COc1cc2nc(C)nc(NC(C)c3cc(N)cc(C(F)(F)F)c3)c2cc1OC1CCOC1 | 94.6

Field request: viability, T/C | item: CC(=O)OC12COC1CC(O)C1(C)C(=O)C(O)C3=C(C)C(OC(=O)C(O)C(NC(=O)OC(C)(C)C)c4ccccc4)CC(O)(C(OC(=O)c4ccccc4)C21)C3(C)C (stereo not given) + CC1OCC2(CCN(c3cnc(Sc4ccnc(N)c4Cl)c(N)n3)CC2)C1N
39.7

----------
The following compounds are listed with their measured viability, T/C values.
- System: KRAS patient-derived spheroids with HUVEC/MSC, viability
- Method Notes: Anticancer human tumor 323965-272-R-J2-PDC cell line growth inhibition [KRAS2];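 note: spheroids exposed to agents for 7 days; 100% = DMSO vehicle control viability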
- Conditions: second compound 1 µM; first compound 0.0316 µM; active compounds read low
// note: answer is a bare numeric in %

CN(C)C/C=C/C(=O)Nc1cc2c(Nc3ccc(F)c(Cl)c3)ncnc2cc1O[C@H]1CCOC1 + C=CC(=O)N1CCN(c2nc(OCC3CCCN3C)nc3c2CCN(c2cccc4cccc(C)c24)C3)CC1CC#N | 40.7
COc1cc(Nc2ncc3c(n2)-c2ccc(Cl)cc2C(c2c(F)cccc2OC)=NC3)ccc1C(=O)O + C=CC(=O)N1CCN(c2nc(=O)n(-c3c(C)ccnc3C(C)C)c3nc(-c4c(O)cccc4F)c(F)cc23)C(C)C1 | 53

Consider the additional compound presented here.
Field request: viability, T/C | item: COc1cc2nccc(Oc3ccc(NC(=O)C4(C(=O)Nc5ccc(F)cc5)CC4)cc3)c2cc1OC + CC1OCC2(CCN(c3cnc(Sc4ccnc(N)c4Cl)c(N)n3)CC2)C1N
46.9

----------
The following compounds are listed with their measured viability, T/C values.
- Tested on: KRAS patient-derived spheroids with HUVEC/MSC, viability
- Method Notes: Anticancer human tumor 323965-272-R-J2-PDC cell line growth inhibition [KRAS2];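 note: spheroids exposed to agents for 7 days; 100% = DMSO vehicle control viability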
- Conditions: compound 1 µM; active compounds read low

Some entries whose results are on file:
Cn1nccc1Nc1nccc(-c2cc3c(s2)C(C)(C)N(CCN2CCOCC2)C3=O)n1 | 61.5% [middle of 5 runs]
C=CC(=O)N1CCN(c2nc(OCC3CCCN3C)nc3c2CCN(c2cccc4cccc(C)c24)C3)CC1CC#N (stereo unspecified) | 57.9% [middle of 17 runs]
COC(=O)c1ccc2c(C(=Nc3ccc(N(C)C(=O)CN4CCN(C)CC4)cc3)c3ccccc3)c(O)[nH]c2c1 | 98% [middle of 5 runs]
CC(C)NCC(C(=O)N1CCN(c2ncnc3c2C(C)CC3O)CC1)c1ccc(Cl)cc1 (stereo unspecified) | 64.6% [middle of 5 runs]
CC1COCCN1c1cc(-c2ccnn2C)c2ccnc(-c3ccn[nH]3)c2n1 (stereo unspecified) | 20.6% [middle of 5 runs]

Consider the additional compound presented here.
Give viability, T/C (KRAS patient-derived spheroids with HUVEC/MSC, viability) of the following compound: O=C(c1cc(Cc2n[nH]c(=O)c3ccccc23)ccc1F)N1CCN(C(=O)C2CC2)CC1
100% [middle of 5 runs]
